Sequence of the target: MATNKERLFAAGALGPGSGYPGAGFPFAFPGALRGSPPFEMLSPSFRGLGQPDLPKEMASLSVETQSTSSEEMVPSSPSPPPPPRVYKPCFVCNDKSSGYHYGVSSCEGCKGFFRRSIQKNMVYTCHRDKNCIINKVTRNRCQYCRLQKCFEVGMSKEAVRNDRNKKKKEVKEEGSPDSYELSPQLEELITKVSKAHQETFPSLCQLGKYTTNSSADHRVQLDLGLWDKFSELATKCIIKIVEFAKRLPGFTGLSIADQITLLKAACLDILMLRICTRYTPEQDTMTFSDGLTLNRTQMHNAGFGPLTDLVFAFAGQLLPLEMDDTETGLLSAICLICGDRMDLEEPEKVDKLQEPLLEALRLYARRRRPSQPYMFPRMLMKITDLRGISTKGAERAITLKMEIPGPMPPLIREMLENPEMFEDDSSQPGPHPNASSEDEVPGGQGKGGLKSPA
Lab note: compare Ki with 70 nM, writing true if less and false if equal or more.

molecule: Cc1ccc(C2=CCC(C)(C)c3cc(C(/C=C/c4ccc(C(=O)O)cc4)=N\O)ccc32)cc1 [Compound 7b]
group-label: true

molecule: Cc1ccc(C2=CC(C)(C)c3cc(C(/C=C/c4ccc(C(=O)O)cc4)=N\O)ccc32)cc1 [Compound 16b]
group-label: false

molecule: Cc1ccc(C2=CCC(C)(C)c3cc(C(/C=C/c4ccc(C(=O)O)cc4)=NO)ccc32)cc1 (racemic) [Compound 7c]
group-label: true

molecule: Cc1ccc(C2=CCC(C)(C)c3cc(C(/C=C/c4ccc(C(=O)O)cc4F)=N/O)ccc32)cc1 [Compound 9a]
group-label: true

molecule: Cc1ccc(C2=CC(C)(C)c3cc(C(/C=C/c4ccc(C(=O)O)cc4F)=N\O)ccc32)cc1 [Compound 18b]
group-label: false

molecule: Cc1ccc(C2=CC(C)(C)c3cc(C(/C=C/c4ccc(C(=O)O)cc4)=N/O)ccc32)cc1 [Compound 16a]
group-label: true
